The reported measurements were obtained from patent US11083725B2.

# Tested on: NHBE cells
# Protocol Description: Biolog metabolic array: substrate use by NHBE cells with or without CA09 infection
# Format: cell-based, human
# Condition Info: Virus (CA09-infected NHBE cells, MOI 1); 9 hr
# note: boundary value 1 maps to condition not met; 590 nm absorbance normalized to zero hour (substrate use), 9 hr below it maps to condition met

>>> answer_label("C[C@@H](O)[C@H](O)[C@H](O)[C@@H](O)C=O")
"condition met"

Ask: Record OC[C@@H](O)[C@@H](O)CO : is its 590 nm absorbance normalized to zero hour (substrate use), 9 hr strictly below 1?
Reply: condition met

Ask: Same thing, different compound: OC[C@@H]1OC(O)[C@@H](O)[C@H](O)[C@H]1O (some centres unmarked)
Reply: condition met

Ask: Quick one: CC(=O)C(C)O (centres unmarked) [3-Hydroxy 2-Butanone]
Reply: condition not met

###

Kindly supply the reported log reduction at 100 µM values for the records listed here.
# System: CA09
# Protocol Description: microbe, parasite or virus in culture
# Format: cell-based, influenza virus H1N1 strain A/CA/04/2009
# Condition Info: NHBE, read-out: TCID50 (per mL)
Answers are plain numbers.

>>> numeric_value("O=C(O)c1nn(Cc2ccc(Cl)cc2Cl)c2ccccc12")
0.65
>>> numeric_value("O=CC[C@@H](O)[C@H](O)[C@H](O)CO")
0.85

Dear colleague, could you please provide log reduction at 100 µM for the compounds listed below?
1. CCc1ccc(CCOc2ccc(CC3SC(=O)NC3=O)cc2)nc1 (stereo not shown)
2. CC[C@@H]1/C=C/C=C/C[C@H](C)[C@@H](O)[C@](C)(O)C(=O)[C@H](C)[C@@H](O)[C@H](C)C(=O)[C@H](C)[C@@H](O)[C@H](C)/C=C/C(=O)O[C@H]2[C@@H](C)[C@@H](CC1)O[C@@]1(CC[C@@H](C)C(CC(C)O)O1)[C@@H]2C (stereo partly shown)

Reply:
1. 0.23
2. 0.28

###

# System: NHBE cells
# Protocol Description: Biolog metabolic array: substrate use by NHBE cells with or without CA09 infection
# Format: cell-based, human
# Condition Info: Virus (CA09-infected, MOI 1) NHBE cells, 8 hr
I'd appreciate it if you could supply 590 nm absorbance normalized to zero hour (substrate use), 8 hr values for the items below.
Answers are plain numbers.

Examples from the recorded data:
>>> numeric_value("CC(O)C(=O)O (centres unmarked)")
3.04
>>> numeric_value("O=C[C@@H](O)[C@H](O)[C@H](O)CO")
1.33
>>> numeric_value("OC[C@H]1OC(O)[C@@H](O)[C@@H](O)[C@@H]1O (some centres unmarked)")
5.47

// each listed compound needs a value for 590 nm absorbance normalized to zero hour (substrate use), 8 hr
1. CCC(=O)O
2. O=C(O)CCC(=O)O

Reply:
1: 1.18; 2: 2.85

###

# Test system: NHBE cells
# Protocol Description: Biolog metabolic array: substrate use by NHBE cells with or without CA09 infection
# Format: cell-based, human
# Condition Info: Virus (CA09-infected NHBE cells, MOI 1); 3 hr
Outcome Measure: 590 nm absorbance normalized to zero hour (substrate use), 3 hr
Answers are plain numbers.

Look at each compound and report its 590 nm absorbance normalized to zero hour (substrate use), 3 hr.
1. O[C@H]1[C@H](O)[C@@H](O)[C@H](O)[C@@H](O)[C@H]1O [m-Inositol]
2. O=C(O)C[C@@H](O)C(=O)O [D-Malic Acid]
3. O=C(CO)[C@@H](O)[C@H](O)[C@@H](O)CO [L-Sorbose]
4. OC[C@@H](O)[C@@H](O)CO [i-Erythritol]

Reply:
0.77
2.54
0.26
0.32

Look at each compound and report its 590 nm absorbance normalized to zero hour (substrate use), 3 hr.
1. OC[C@H]1O[C@@H](OC[C@H]2OC(O)[C@H](O)[C@@H](O)[C@@H]2O)[C@H](O)[C@@H](O)[C@@H]1O (stereo partly drawn) [Gentio-biose]
2. CC(=O)C(C)O (stereo not drawn) [3-Hydroxy 2-Butanone]

Reply:
1. 1.44
2. 2.42
